B1: C19orf51 (parent)
chain: FAPQTGARPSETFARFCKSQESAL

- Variants of: B1
- method_notes: protein stability index of a GFP-peptide fusion (GPS, HEK-293T) (PSI 1-6); higher = more stable;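 further: lentivirally expressed fusions sorted by FACS into six bins by GFP to DsRed ratio, PSI derived from sequencing read proportions per bin multiplied by bin number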
- condition_set: c terminus: a fixed tail appended
So basically: protein stability index at 2 or higher? That is criterion met. Lower than 2? That is criterion not met.

Examples from the recorded data:
{"columns": ["monomer_sequence", "label_class"],
 "data": [
  ["FAPQTGAQPSETFARFCKSQESAL", "criterion not met"],
  ["FAPQTGARPSETFAQFCKSQESAL", "criterion not met"]
]}

Query :: Check this variant for protein stability index at or above 2: `FAFQTGARPSETFARFCKSQESAL`
Result :: criterion not met

Query :: Entry `FAPQTGAYPSETFARFCKSQESAL` : is its protein stability index no less than 2?
Result :: criterion not met
